Values from patent US11358969B2

- Experimental System: AHR (UniProt P35869)
- Construct: IC50
- Sequence (P35869 1-848): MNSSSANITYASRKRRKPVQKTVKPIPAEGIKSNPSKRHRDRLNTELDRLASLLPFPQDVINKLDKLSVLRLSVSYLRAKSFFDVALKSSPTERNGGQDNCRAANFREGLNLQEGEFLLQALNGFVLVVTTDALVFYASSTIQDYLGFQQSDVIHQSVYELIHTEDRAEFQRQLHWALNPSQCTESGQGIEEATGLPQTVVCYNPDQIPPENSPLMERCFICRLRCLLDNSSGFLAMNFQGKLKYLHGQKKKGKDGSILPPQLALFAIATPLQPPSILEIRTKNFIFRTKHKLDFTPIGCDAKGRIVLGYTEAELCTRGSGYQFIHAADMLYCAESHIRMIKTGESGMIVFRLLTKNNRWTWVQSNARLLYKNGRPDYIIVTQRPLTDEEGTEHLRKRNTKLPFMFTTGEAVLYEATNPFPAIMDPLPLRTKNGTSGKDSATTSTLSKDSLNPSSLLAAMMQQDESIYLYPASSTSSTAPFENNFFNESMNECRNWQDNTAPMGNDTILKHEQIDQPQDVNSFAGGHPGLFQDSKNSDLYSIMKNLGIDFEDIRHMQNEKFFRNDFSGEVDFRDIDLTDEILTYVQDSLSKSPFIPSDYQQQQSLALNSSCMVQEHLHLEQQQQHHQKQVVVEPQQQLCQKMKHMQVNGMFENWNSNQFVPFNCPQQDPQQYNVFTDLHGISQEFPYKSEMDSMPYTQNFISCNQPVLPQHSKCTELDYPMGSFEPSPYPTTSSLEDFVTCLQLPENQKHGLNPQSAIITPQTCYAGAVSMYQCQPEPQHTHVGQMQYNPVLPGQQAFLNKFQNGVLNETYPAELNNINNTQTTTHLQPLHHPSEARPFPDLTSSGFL
- Assay Info: DRE-Luciferase Reporter Assay (Alternate Method) (Example 1B)
- Type: cell-based, murine or human
- Protocol Conditions: cell line and AHR activating ligand not specified
pIC50: −log10 of the molar value.
Measured Property: pIC50

CC(C)c1cnn2c(N[C@@H]3CCc4c([nH]c5ccccc45)C3)nc(-c3cncc(F)c3)nc12 [I-146b]: < 5.82

Task: pIC50 for Cc1cnn2c(NCCc3ccc(O)cc3)cc(-c3cncc(F)c3)nc12 ?
Result: > 6.30

Task: Field entry: CC(C)c1cnn2c(N[C@@H]3CCc4[nH]c5ccccc5c4C3)cc(-c3ccccc3)nc12
Result: < 5.82

Task: Do the same for CC(C)Oc1nc(NCCc2c[nH]c3ccccc23)nc(-c2cncc(F)c2)n1 please
Result: > 6.30

Task: Another compound to check: OCc1cnn2c(NC[C@@H](O)c3c[nH]c4ccccc34)cc(-c3cncc(F)c3)nc12 [I-144a]
Result: 5.82 to 6.00

Task: Lookup CC(C)c1cnn2c(N[C@H]3CCc4[nH]ccc4C3)nc(-c3cncc(F)c3)nc12 [I-137a]
Result: > 6.30

Task: Would you mind doing Cc1cnn2c(NC(Cc3c[nH]c4ccccc34)CN(C)C)cc(-c3cncc(F)c3)nc12 (centres unmarked) as well?
Result: < 5.82

Task: Subsequent entry: CN(C)c1cnn2c(N[C@@H]3Cc4ccc(O)cc4C3)cc(-c3cncc(F)c3)nc12 [I-204a]
Result: > 6.30

====

Reported AUC(0-t) values follow for various molecules
- Assay Info: Mouse Pharmacokinetic Study (Example 1C)
- Assay type: in vivo
- Protocol Conditions: mouse; CD-1 mice, iv, 3 mg/kg; plasma
Reply with a number, then the unit it belongs to.

N#Cc1cnn2c(N[C@@H]3CCc4[nH]c5ccccc5c4C3)nc(-c3cncc(F)c3)nc12: 1.22 µg·h/mL
CC(C)c1cnn2c(NCCc3c[nH]c4ccccc34)cc(-c3cncc(F)c3)nc12: 0.554 µg·h/mL
Cc1cnn2c(N[C@@H]3CCc4[nH]c5ccccc5c4C3)nc(-c3cncc(F)c3)nc12: 1.2 µg·h/mL
Cc1cnn2c(N[C@H]3CCc4[nH]ccc4C3)nc(-c3cncc(F)c3)nc12 [I-259a]: 0.825 µg·h/mL

Task: Entry CN(C)c1cnn2c(N[C@@H]3CCc4[nH]c5ccccc5c4C3)nc(-c3cncc(F)c3)nc12 has what AUC(0-t)?
Result: 1.34 µg·h/mL

Task: Try the molecule Cc1cnn2c(NCCc3c[nH]c4ccccc34)cc(-c3cncc(F)c3)nc12
Result: 0.862 µg·h/mL

Task: Same again, this time with CC(C)c1cnn2c(N[C@@H]3CCc4[nH]c5ccccc5c4C3)nc(-c3cncc(F)c3)nc12
Result: 1.07 µg·h/mL

Task: Next molecule up: Cc1cnn2c(N[C@H]3Cc4ccc(O)cc4C3)cc(-c3cncc(F)c3)nc12
Result: 0.678 µg·h/mL
